Measured values drawn from patent US7713937B2 for this set.

TARGET_OF_ASSAY: human kappa opioid receptor (hKOR) (Homo sapiens, UniProt P41145)
Construct: expressed in transfected cells; host or cells: HEK-293 cells, transient transfection with Fugene6
Sequence (P41145 whole entry): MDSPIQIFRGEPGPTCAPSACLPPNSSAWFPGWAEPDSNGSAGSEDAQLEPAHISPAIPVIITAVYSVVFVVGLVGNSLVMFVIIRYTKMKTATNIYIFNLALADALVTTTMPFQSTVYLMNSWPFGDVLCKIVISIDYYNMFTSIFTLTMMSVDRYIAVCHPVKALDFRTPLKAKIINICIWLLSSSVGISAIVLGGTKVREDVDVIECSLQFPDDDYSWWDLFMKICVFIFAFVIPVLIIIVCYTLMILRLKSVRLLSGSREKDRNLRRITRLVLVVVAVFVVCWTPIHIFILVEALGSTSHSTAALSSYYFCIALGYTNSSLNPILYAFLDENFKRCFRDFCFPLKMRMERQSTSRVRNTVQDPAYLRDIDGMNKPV
PROCEDURE_SUMMARY: cell-based
ASSAY_CONTEXT: HEK293, read-out: hKOR Efficacy(%)
Square brackets hold non-standard residues; d marks the D form. Peptide text beside a SMILES is read from it. * marks the point of attachment. Piperidinyl(4-(1-Pro-OH)) = O=C(O)[C@@H]1CCCN1C1CCN(*)CC1; dAgb = N=C(N)NCC[C@@H](N)C(=O)O
Could you please report measured Emax for the items listed next?
Express the result in % but write the number alone.

What does the record list as Emax for CC(C)C[C@@H](NC(=O)[C@@H](Cc1ccccc1)NC(=O)[C@H](N)Cc1ccccc1)C(=O)N[C@H](CCCN)C(=O)N1CCCN(C(=N)N)CC1 [Compound (53)] ? 103

What does the record list as Emax for CC(C)C[C@@H](NC(=O)[C@@H](Cc1ccccc1)NC(=O)[C@H](N)Cc1ccccc1)C(=O)N[C@H](CCNC(=N)N)C(=O)N1CCC(N2CCC[C@H]2C(=O)O)CC1 [Compound (13)] (H-[dF][dF][dL][dAgb]-{Piperidinyl(4-(1-Pro-OH))}) ? 90

What does the record list as Emax for CC(C)C[C@@H](NC(=O)[C@@H](Cc1ccccc1)NC(=O)[C@H](N)Cc1ccccc1)C(=O)N[C@H](CCCN)C(=O)N1CCCN(C2=NCCN2)CC1 [Compound (54)] ? 90
